# experiment-summary: yeast display, Sf9 membrane polyspecificity reagent, FACS + sequencing; frameworks hold sequencing errors
readout-name: polyreactivity (PSR sort gate)

Study these solved cases before continuing.
QVQLVESGVGIVQAGGSLRLSCAASGRISYFNAMGWYRQAPGKERELVAAIRRSGGITYYADSVKGRFTISRDNAKNTVYLQMNSLKPEDTAVYYFATERYSWAERDFGYWGQGTLVTVSS ... low polyreactivity
QVQLVESGGGLVQAGSSLRISCAASGRTLIYYAMGWYRQAPGKEREMVASINRRGDSTYYADSVKGRFTISRYNAKNTVYLQMYSLKPEDTAVYYCAKVLYGGYPENRYFVGWGREYLGQGTQVTVSS ... high polyreactivity
QVQLVESGGGLVQAGGSLLLSCAASGGTFYYYAMGWYRQAPGKERELVASISSRGGSTYYADSVKGRFTISRDNAKNTVYLQMNSLKPEDTAVYYCAARSLYRGFGYWGQGTQVTVSS ... high polyreactivity
QVQLVESGGGLVQAGGSLRLSCAASGSTFHLYAMGWYRQAPGKERELVASITWSGGRTYYADSVKGRFTISRDYAKNTVYLHMNSLKPEDTAVYYCAAGDVNWSYSLLYTVVLYDSWGQGTQVTVSS ... high polyreactivity
QVQLVESVGGLVQAGGSLRLSCAASGSNFPPYAMGWYRQAPGKERELVAAITSTDSTDYADSVKGRFTISRDNAKNTVYLQMNSLKPEDTAVYYCAAATGTYGRGGYYWGQGTQVTVSS ... high polyreactivity

List polyreactivity (PSR sort gate) for every entry below, keeping the order given.
1. QVQLVESGGGLVQAGGSLRLSCAASGGIFYSYAMGWYRQAPGKERELVAAITWIGGSTYYADSVKGRFTISRDNAKNTVYLQMNSLKPEDTAVYYCAAEILWGGYDYWGQGTQVTVSS
2. QVQLVESGGGLVQAGGSLRLSCAASGRIFYNYSMGWYRQAPGKEREVVAAISGSGGSTYYADSVKGRFTISRDNAKNTVYLQMNSLKPEDTAVYYGSTSGGQYYSRNFEYWGQGTQVTVSS
3. QVQLVESGGGLVQAGGSLRLSCAASGFTFRVNAMGWYRQAPGKERELVAAISSGGSTNYADSVKGRFTISRDNAKNTVYLQMNSLKPEDTAVYYCAKRFKYIYYWGQGTQVTVSS

Data returned:
1: low polyreactivity; 2: low polyreactivity; 3: high polyreactivity

###

# experiment-summary: yeast display, Sf9 membrane polyspecificity reagent, FACS + sequencing; frameworks hold sequencing errors
readout-name: polyreactivity (PSR sort gate)

Study these solved cases before continuing.
QVHLVESGGGLVQAGGSLRLSCAAYGSIFHGNAMGWYRQAPGKERELVAAISWSGDSTYYADSVKGRFTISRDNAKNTVYLHMNSLKPEDTAVYSCNAEWTRDFYEYDYWGQGTQVTVSS ... low polyreactivity
QVQLQESGGGLVQACGSLRLSCAASGTITVLYKMGWFRQAPGKEREFVASINYGTSTYYADSVKGRFTVSRDSAKNTVYLQMNSLKPEDTAVYYCAAAYRWQDVYRYWGQGTQVTVSS ... low polyreactivity
QVQLVESGGGLFQAGGSLRLSCAASGSTFWFNAMGWYRQAPGKERELVAAITSGDGTNYADSVKGRFTISRDNAKNTVYLQMNSLKPEVTAVYYCATVYADESGIEGYSWGQGTQVTVSS ... low polyreactivity
QVQLVESGGGLVQAGGSLRLSCAASGIIFWAYALGWYRQAPGKERELVAVISRGGSTNYADSVKGPFTISRDNAKNTVYLQMNSLKPEDTAVYYCAARYGWGQGTQVTVSS ... high polyreactivity

List polyreactivity (PSR sort gate) for every entry below, keeping the order given.
1. QVQLVESGGGLVQAGGSLRLSCAASGGIFPQYAMGWYRQAPGKERQLVAAISRRGGRTYYADSVKGRFTISRDNAKNTDYLQMNSLKPEDTAVYYCNAGGSSGYDYWGQGTQVTVSS
2. QVQLVESGGGLVQAGGSLRLSCAASGRTFYHNAMGWYRPAPGKEWELVASIRWSGGSTYADSVKGRFTISRDNAKNTVYLQMNSLKPEDTAGYYCAKVGKSLYPVDYYSWGQGTQVTVSS
3. QVQHVESGGGLVQAGGSLRLSCAASGGTFADYTMGWYRQAPGKERELVAAITSSGGSTYYADSVKGRFTISRDNAKNTVYLQMNSLKTEDTAVYYCAALGYVAMGYWGQGTQVTVSS
4. QVQLVESVGGLVQAGGSLRLSCAASGYIFYGYAMGWYRQAPGKEREFVAAITVRGGSTYYADSVKGRFTISRDNAKNTVYLQMNSEKPEDTAVYYCAAAPQFTFGVGYWGQGTQVTVSS
5. QVQLVESGGGLVQAGGSLRLSFAASGSIFVGYAMGLYRQAPGKERELVAAISWSGDSTYYADSVKGRFTISRDNAKNTVYLQMYSLKPEDTAVPYCAVDPQQVRTLDYYVGYDYWGQGTQVTVSS
6. QVQLVESGGGLVQAGRSLRLSCAASGRTYSVYAMGWYRKAPGKETELLAGITSGGSTNYADSVKGRFTISRDNAKNTVYLQMNSLNPEDTAVYYCAAENVYAGFGFVSIGDYWGQGTQVTVST

Data returned:
["high polyreactivity", "high polyreactivity", "high polyreactivity", "low polyreactivity", "low polyreactivity", "low polyreactivity"]

List polyreactivity (PSR sort gate) for every entry below, keeping the order given.
1. QVQLVESGGGLVQAGGSLRLSCAASGITFYFYAMGWYRQAPGKERELVARITSRGTRTYYADSVKGRFTISRDNAKNTVYLQMNSLKPEDTAVYYCAAGVSWDDYYWGQGTQVTVSS
2. QVQLVESGGGLVQAGGSLRLSCAASGSTFYVNAMGWYRQAPGKERELVAGISYNAGSTYYADSVKGRFTISRDNAKNTVSLQMNSLKPEDTAVYYCAAYPYWRWYGYLGYDYWGQGTQVTVSS
3. QVQLVESGGRLVQAGGSLRLSCAASGRTFGYYAMGWYRQAPGQERELVAAITESGGSTYYSDSVKGRFTISRDNAMNTVYLQMNSLKPEDTAVYYFASTHFVKGDYWGQGTQVTVSS

Data returned:
["high polyreactivity", "low polyreactivity", "high polyreactivity"]

List polyreactivity (PSR sort gate) for every entry below, keeping the order given.
1. QVQLVESGGGLVQAGGRLRLSCAASGSTFPTNVMGWYRQAPGKERELVAAITKRGSITYYADSVKGRFTISRDNAKNTVYLQMNSLKPEDTAVYYCAARKVAVRGYGYWGQGTQVTVSS
2. QVQLVESGGGLVQAGGSLRLSCAASGSIFGYYAMGWYRQAPGKERELVAAISYSGGSTYYADSVKGRFTISRDNAKNTVYVQMNSLKPEDTAVYYCAARYASTPYARFGYWGQGSQVTVSS
3. QVQLVESGGGLVQAGGSLRLSCAASGCIFYPYAMGWYRQAPGKERELVAAITYSGGSTYADSVKGRFTISRDNAKNTVYLQMNSLKPEDTAVYYCNAKFYFYGGTYIVKYDYWGQGTQVTVSS
4. QVQLVESGGGLVQAGGSLRLSCAASGSIFKYYAMGWYRQAPGKERELVASITSGGSTNYADSVKGRFTISRDNAKNTVYLQMNSLKPEDTAVYYCAADGVRVPRREYDYWGQGTQVTVSS
5. QVQLVESGGGLVQAGGSLRLSCAASGRIFAYYAMGWYRQAPGKERELVAAISFIGGSTYYADSVKGRFTISRDNAKNTVYLQMNSLKPEDTAVDYCTAGYVRRYSPSSSWRYDYWGQGTQVTVSS
6. QVQHVESGGGLVQAGGSLRLSCAASGRTFKYYAMGWDRQAPGKERELVAAITRRGTSTYYADSVKGRFTISRDNAKNTVYLQMNSLKPEDTAVYYCNKDSPVTYSSRYGYWGQGTQVTVSS

Data returned:
high polyreactivity
high polyreactivity
high polyreactivity
low polyreactivity
high polyreactivity
high polyreactivity

List polyreactivity (PSR sort gate) for every entry below, keeping the order given.
1. QVQLVESGVGLVQAGGILRLSCAASGSIFWPNAMGWYRHAPGKERELVAGISYSGGRTYYADSVKARFTISRDNEKNTVYLQMNSLKPEDTAVYYCTARRSSGYGYWGQGTHVTVSS
2. QVQLVESGGGLVQAGGSLRLSCAASGFIFVTYAMGWYRHAPGKERELVAAITNSGGTTYYADSVKGRFTISRDNAKNTVYLQMNSLKPEDTAVYYCNKPYGAETAHREFDYWGQGTQVTVSS

Data returned:
1: high polyreactivity; 2: low polyreactivity

###

# experiment-summary: yeast display, Sf9 membrane polyspecificity reagent, FACS + sequencing; frameworks hold sequencing errors
readout-name: polyreactivity (PSR sort gate)

Study these solved cases before continuing.
QVQLVESGGGLVQAGGSLRLSCAASGFTFGTYAMGWYRQAPGKERELVASIRTDDSTYADSVKGRFTISRDNAKNTVYLQMNSLKPEDTAVYYCAVDGYVIYVYDTYDYWGQGTQVTVSS ... low polyreactivity
QVQLVESGGGLVQAGGSLRLSCAASGFTFRYYAMGWYRQAPGKERELVAAITSGDSTYYADSVKGRFTISRDNAKNTVYLQMNSLKPEDTAVYYCNKDRRPTADFGYWGQGTQVTVSS ... high polyreactivity
QVQLVESGGGLVQAGGSLRLSCAASGSIFDYYAMGWYRQAPGKERELVSTYYADSVKGRFTISRDNAKNTVYLQMNSLKPEDTAVYYCAKDRGTTGIRDGPAASLYGYEYWGQGTQVTVSS ... low polyreactivity
QVQLVESGGGLVQAGGSLRLSCAASGFTFQRYAMGWYRQAPGKERELVADISRSGGSTYYADSVKGRFTISRDNAKNTVYLQMNSLKPEDTAVYYCAAGYPGYDSYYKFYYWGQGTQVTVSS ... high polyreactivity
QVQLVESGGGLVQAGGSLRLSCAASGSIFYDKAMGWYRQAPGKERELVAVISNSGRTYYADSVKGRFTISRDNAKNTVYLQMNSLKPEDTAVYYCWGQVTQVTVSS ... low polyreactivity

List polyreactivity (PSR sort gate) for every entry below, keeping the order given.
1. QVQLVESGGGLVQAGGSLRLSCAASGRTFTAYAMGWYRQAPGKERELVAAITVSTSSTFYADSVKGRFTISRDNAKNTVYLQMNSLKPEDTAVYYCNKETLYPLDYWGEGTQVTVSS
2. QVQLVESGGGLVQAGGSLRLSCAASGSTIRQNAMGWSSQAPGKEMELVAAITYTGGSTYYADSVKGRYTISRDNAKNTVYLEMNSLKPEDTSVYYCAATYLSYYHGWVNYWGEGTQVTVSS
3. QVQLVESGGGLVQAGGSLRLSCAASGGTFGTNAMGWYRQAPGKEREFVAAISRSGGSTNYADSVKGRFTISRDNAKNTVYLEMNILKPEDTAVYFCATRVIVVPRGGGYYSWGQGTQVTVSS
4. QVQLVESGGGLVQAGGSLRLSCAASGSIFYRNTMGWYRQAPGKERELVASINTGTGTYYADSVKGRFTISRDNAKNTVYLQMNSLKPEDTAVYYCNAKGWVWPFPSYYPYDSWGQGTQVTVSS
5. QVQLVESGGGLVQAGGSLRLSCAASGRTFYPNTMGWYRQAPGKERELVATITRSGGTTYADSVKGRFTISRDNAKNTVYLQMHSLKPEDTAVYYCNADQRRYYWLVSQRYDYWGQGTQVTVSS

Data returned:
["low polyreactivity", "high polyreactivity", "high polyreactivity", "high polyreactivity", "low polyreactivity"]

Data request: What polyreactivity (PSR sort gate) value was documented for this sequence, QVQLVESGGGLVQAGGSLRLSCAASGNTIRVYAMGWYRQAPGKERELVAAITWSGSRTYYADSVKGRFTISRDNAKNTVYLQMNSLKPEDTAVYYCAARFVRPAYNYWGQGTQVTVSS ?
Data returned: high polyreactivity
